- protocol.description: Half-life in BALB/c mouse at 30 mg/kg, po measured upto 24 hrs by LC-MS/MS analysis
- Type: ADME, organism-based
- assay.context: in vivo
# half-life listing for each entry below
// units = h; emit number, no label

> print(dat)
                            compound.string  value
1  CCCSc1nc2c(c(=O)[nH]1)[C@@H](c1ccc(OC)cc1)CC(=O)N2   5.14

We now examine a further compound.
Quick one: half-life of CCCSc1nc2c(c(=O)[nH]1)[C@@H](c1ccc(OC)cc1[N+](=O)[O-])CC(=O)N2 ?
7.95

###

Measured microsomal CLint at 2 µM accompanies every entry in the list below.
- protocol.description: Metabolic stability in mouse liver microsomes assessed as intrinsic clearance per mg protein at 2 uM preincubated for 60 mins followed by NADPH addition and measured upto 60 mins by LC-MS analysis
- Type: ADME, Microsome
- assay.context: time < 120 min, read-out: CLH
Numeric only. Scale: µL/min/mg

> print(dat)
                                   compound           reported.metric  value
1  CCCSc1nc2c(c(=O)[nH]1)C(c1ccc(OC)cc1)CC(=O)N2 (racemic)  microsomal CLint at 2 µM   2.48
2  CCCSc1nc2c(c(=O)[nH]1)C(c1ccc(OC)cc1[N+](=O)[O-])CC(=O)N2 (racemic)  microsomal CLint at 2 µM   14.2
3  CCCSc1nc2c(c(=O)[nH]1)[C@@H](c1ccc(OC)cc1[N+](=O)[O-])CC(=O)N2  microsomal CLint at 2 µM   4.04

// below: microsomal CLint at 2 µM requested for another compound
Fill in: microsomal CLint at 2 µM of CCCSc1nc2c(c(=O)[nH]1)[C@@H](c1ccc(OC)cc1)CC(=O)N2 is ___
3.75

###

# log10 IC50 at 48 h values compiled below
- protocol.description: Cytotoxicity against african green monkey Vero cells incubated for 48 hrs by CCK8 assay
- Assay type: toxicity, cell-based, Chlorocebus sabaeus
The common logarithm of IC50 at 48 h in µg/mL is what is listed.

> print(dat)
                                   molecule     reported.metric  value
1  CCCCSc1nc2c(c(=O)[nH]1)C(c1ccc(OC)cc1)CC(=O)N2 (stereo unspecified)  log10 IC50 at 48 h   1.67
2  COc1ccc(C2CC(=O)Nc3nc(SC)[nH]c(=O)c32)cc1 (stereo unspecified)  log10 IC50 at 48 h   1.49
3  CCCCCCCOc1ccc(C2CC(=O)Nc3nc(SCCC)[nH]c(=O)c32)cc1 (stereo unspecified)  log10 IC50 at 48 h   1.56
4  C=CCSc1nc2c(c(=O)[nH]1)C(c1ccc(OCCC)cc1)CC(=O)N2 (stereo unspecified)  log10 IC50 at 48 h   0.66
5  CCCOc1ccc(C2CC(=O)Nc3nc(SC)[nH]c(=O)c32)cc1 (stereo unspecified)  log10 IC50 at 48 h   1.73
6  CCCSc1nc2c(c(=O)[nH]1)C(c1ccc(OCC)cc1)CC(=O)N2 (stereo unspecified)  log10 IC50 at 48 h   1.78
7  C=CCSc1nc2c(c(=O)[nH]1)C(c1ccc(OC)cc1)CC(=O)N2 (stereo unspecified)  log10 IC50 at 48 h   1.61
8  CCCOc1ccc(C2CC(=O)Nc3nc(SCCC)[nH]c(=O)c32)cc1O (stereo unspecified)  log10 IC50 at 48 h   2.00

Value lookup for log10 IC50 at 48 h; key = CCCSc1nc2c(c(=O)[nH]1)C(c1ccc(OC)c(OC)c1)CC(=O)N2 (stereo unspecified)
1.31

Name the recorded log10 IC50 at 48 h for CCCSc1nc2c(c(=O)[nH]1)C(c1ccc(OC)cc1O)CC(=O)N2 (stereo unspecified) .
1.73

Could you tell me which log10 IC50 at 48 h is on file for CCCOc1ccc(C2CC(=O)Nc3nc(SCCC)[nH]c(=O)c32)c(O)c1 (stereo unspecified) ?
1.64

Source: ChEMBL document CHEMBL5584339
